system: 786-O; experiment: Euclidean distance of Cell Painting phenotypic profile (signed KS, 77 features) to DMSO centroid (dimensionless distance); higher = stronger phenotypic change vs DMSO (phenoactivity); conditions: 48 h; 5 or 10 uM (library dependent)
Exercise: state measured Euclidean distance for each of the molecules provided.
// no unit, no text: just the number

What is its Euclidean distance for 786-O? Entry: Cn1cc(C2=C(c3cn(C4CCN(Cc5ccccn5)CC4)c4ccccc34)C(=O)NC2=O)c2ccccc21 1.96

So what Euclidean distance did COC[C@H]1OC(=O)c2coc3c2[C@@]1(C)C1=C(C3=O)[C@@H]2CCC(=O)[C@@]2(C)C[C@H]1OC(C)=O get with 786-O? 1.37

Missing value: Euclidean distance, 786-O, entry C[N+]1(C)[C@@H]2C[C@@H](OC(=O)[C@H](CO)c3ccccc3)C[C@H]1[C@@H]1O[C@@H]12 . Fill in? 0.909

Give 786-O Euclidean distance for O=C(Oc1ccc([N+](=O)[O-])cc1)N1CCC(C(O)(c2ccc3c(c2)OCO3)c2ccc3c(c2)OCO3)CC1 1.24
